System: gastric juice secretion
Experiment: Gastric juice secretion inhibition activity (pyloric ligature)
Type: in vivo, Wistar strain male rats
Conditions: rats, 100 mg/kg p.o., pyloric ligature, 4 h; second part of Table 5
Observation Type: Pepsin Output (mg tyrosine/100 g)

Cc1nc2sc3ccccc3n2c1COC(C)C.Cl [Example 13] : 13.0
Cc1nc2sc3cc(F)ccc3n2c1CO [Example 11] : 16.7
Cc1nc2sc3ccccc3n2c1C(C)O (centres unmarked) [Example 4] : 9.9
COc1ccc(COCc2c(C)nc3sc4ccccc4n23)cc1 [Example 14] : 22.4
Cc1nc2sc3ccccc3n2c1C(C)(C)O [Example 6] : 23.4

###

Test system: aspirin-induced ulcer
Experiment: Antiulcer activity against aspirin-induced ulcer model
Format: in vivo, Wistar strain male rats
Conditions: rats, 100 mg/kg p.o. 30 min before aspirin 200 mg/kg p.o.; stomach excised 7 h after aspirin
Observation Type: Aspirin Induced Ulcer Ulcer Index

COc1cc2c(sc3nc(C)c(CO)n32)c(OC)c1OC : 53.7 ± 8.3 mm^2
Cc1nc2sc3ccccc3n2c1COC(C)C.Cl : 24.4 ± 3.3 mm^2
COc1ccc(COCc2c(C)nc3sc4ccccc4n23)cc1 : 71.5 ± 8.0 mm^2
Cc1nc2sc3ccccc3n2c1C(O)c1ccccc1 (centres unmarked) : 39.6 ± 3.7 mm^2
CCCC(O)c1c(C)nc2sc3ccccc3n12 (centres unmarked) : 43.8 ± 10.3 mm^2
Cc1nc2sc3ccccc3n2c1C(C)(C)O : 55.1 ± 8.7 mm^2
COc1ccc2c(c1)sc1nc(C)c(CO)n12 : 64.8 ± 7.5 mm^2
Cc1nc2sc3ccccc3n2c1CO : 23.3 ± 5.1 mm^2
Cc1nc2sc3ccccc3n2c1CO.Cl : 36.0 ± 5.8 mm^2
Cc1nc2sc3ccccc3n2c1C(C)O (centres unmarked) : 8.0 ± 2.9 mm^2
Cc1nc2sc3cc(F)ccc3n2c1CO : 34.2 ± 2.2 mm^2
